# Method: Pharmacokinetic and oral bioavailability tests in SD rats
# Type: in vivo
# Run parameters: Sprague-Dawley (SD), rat, plasma, intravenous injection, 2.0 mg/kg, read-out: Clearance rate (converted)
Assay endpoint: clearance
Returns: string containing the numeric result and its unit.

// query clearance value for entry `Cc1c(C#Cc2cnc3ccc(N4CCC(O)CC4)nn23)cccc1C(=O)Nc1cc(Cl)cc(C(F)(F)F)c1`
3.65 mL/h/kg

====

# Method: Pharmacokinetic and oral bioavailability tests in SD rats
# Type: in vivo
# Run parameters: Sprague-Dawley (SD), rat, plasma, intravenous injection, 2.0 mg/kg
Assay endpoint: AUC(0-t) (µg·h/mL)
Give just the number in µg·h/mL; leave the unit off.

// query AUC(0-t) value for entry `Cc1c(C#Cc2cnc3ccc(N4CCC(O)CC4)nn23)cccc1C(=O)Nc1cc(Cl)cc(C(F)(F)F)c1`
358

Reference for the values: patent US11834454B2
